# experiment notes: E. coli acrAB mutant growth effects, primary screen, E. coli filamentation inducers, strain DRC39, OD650, 24 h (AID 1178);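 further: growth measured as culture turbidity by optical density at 650 nm; test concentration not given here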
# test settings: higher = more signal, called active from +8 up or from −8 down
Outcome label depends on z-score relative to 0.3: at/above gives YES, below gives NO.

molecule: Cc1ccccc1C(O)C1C=CC2C(=O)N(C)C(=O)C2N1N(c1ccccc1)c1ccccc1 (configuration not stated)
label: NO
//
molecule: CC(c1ccccc1)C(O)C1C=CC2C(=O)N(c3ccccc3)C(=O)C2N1Nc1ccc([N+](=O)[O-])cc1 (configuration not stated)
label: NO
//
molecule: COCCOC(=O)N1C(=O)[C@@]2(c3cc(C#CCCO)ccc31)[C@H](C(=O)Nc1nc3ccccc3s1)[C@H]1C(=O)O[C@H](c3ccccc3)[C@H](c3ccccc3)N1[C@@H]2c1ccccc1OCCO
label: NO
//
molecule: Cc1cc(C)cc(N2C(=O)CSC2c2cccc([N+](=O)[O-])c2)c1 (configuration not stated)
label: YES
//
molecule: [N-]=[N+]=Nc1ccccc1C[C@]1(C(=O)N2CCOCC2)N=C(c2ccc(OCCCO)cc2)O[C@H]1c1ccccc1
label: YES
//
molecule: O=c1n(-c2ccccc2)c(=O)n2n1CC(COc1ccccc1)=C([C@H](O)CCc1ccccc1)[C@@H]2CO
label: YES
//
molecule: O=C1O[C@H](c2ccccc2)[C@H](c2ccccc2)N2[C@H]1[C@@H](C(=O)Nc1nc3ccccc3s1)[C@]1(C(=O)Nc3ccc(C#CCCO)cc31)[C@H]2c1ccc(O)cc1
label: NO

Where do the numbers come from? From PubChem BioAssay.
